- targetOfAssay: Serine/threonine-protein kinase TBK1 (Homo sapiens) (UniProt Q9UHD2);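 note: values are the mean TBK1 inhibition, taken from the GSK PKIS screening data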
- Sequence (Q9UHD2 whole entry): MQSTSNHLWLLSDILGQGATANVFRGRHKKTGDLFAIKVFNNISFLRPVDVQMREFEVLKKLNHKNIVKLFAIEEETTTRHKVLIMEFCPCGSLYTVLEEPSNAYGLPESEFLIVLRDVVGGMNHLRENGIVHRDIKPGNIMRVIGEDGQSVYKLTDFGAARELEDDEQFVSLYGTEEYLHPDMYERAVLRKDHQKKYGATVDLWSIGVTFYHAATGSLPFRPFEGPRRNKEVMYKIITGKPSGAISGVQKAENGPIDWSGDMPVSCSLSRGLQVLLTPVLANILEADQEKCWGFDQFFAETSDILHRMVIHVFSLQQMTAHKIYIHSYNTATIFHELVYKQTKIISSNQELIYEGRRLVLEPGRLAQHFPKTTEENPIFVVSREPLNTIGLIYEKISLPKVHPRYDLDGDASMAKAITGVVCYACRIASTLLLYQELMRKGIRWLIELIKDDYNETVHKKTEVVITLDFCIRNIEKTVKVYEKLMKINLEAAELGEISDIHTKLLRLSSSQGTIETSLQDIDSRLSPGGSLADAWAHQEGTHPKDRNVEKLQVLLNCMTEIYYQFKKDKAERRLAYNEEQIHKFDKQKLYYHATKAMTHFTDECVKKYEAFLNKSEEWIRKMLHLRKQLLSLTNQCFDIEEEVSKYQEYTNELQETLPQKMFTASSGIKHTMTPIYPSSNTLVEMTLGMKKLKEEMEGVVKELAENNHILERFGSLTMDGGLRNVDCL
- recordedConditions: at 0.1 µM
metricName: inhibition (%)
One number for each entry, in %.

CCCN1CCCC(c2ccc(Nc3nc(Nc4cc(F)ccc4C(N)=O)c4cc[nH]c4n3)c(OC)c2)C1 (configuration not stated); 4.22

For each entry beneath this line, provide reported inhibition.
1. [O-][S+]1CCN(Cc2ccc(-c3ccc4ncnc(Nc5ccc(OCc6ccccc6)c(Cl)c5)c4c3)o2)CC1
2. OCc1ccc(-c2nc(-c3ccccn3)c(-c3ccc4c(c3)OCO4)[nH]2)cc1
3. CS(=O)(=O)CCNCc1nc(-c2ccc3ncnc(Nc4ccc(OCc5cccc(C(F)(F)F)c5)cc4)c3c2)cs1
4. COc1cc2ncn(-c3cc(OCc4ccccc4S(C)(=O)=O)c(C#N)s3)c2cc1OC
5. NC(=O)c1cccc(Nc2nccc(Nc3cccc(F)c3)n2)c1
6. Cc1cc(-c2ccccn2)cc(C)c1/C=C/c1cncc(-c2nn[nH]n2)c1
7. COc1cc2ncnc(Nc3ccc4c(cnn4Cc4ccccc4)c3)c2cc1OC
8. COc1cccc(-n2ncc3c(N/N=C/c4ccc(S(C)(=O)=O)cc4)ncnc32)c1

OUTPUT:
0.91
2.36
2.22
64.9
1.55
3.59
0.22
8.06

For each entry beneath this line, provide reported inhibition.
1. Cc1ccc2c(-c3ccnc(Nc4cccc(C(F)(F)F)c4)n3)c(-c3ccccc3)nn2n1
2. Oc1cccc(-c2nc(-c3ccccc3)[nH]c2-c2ccncc2)c1
3. COc1cc(Nc2nccc(-c3cnn4ncccc34)n2)cc(OC)c1
4. Nc1nccc(-c2c(-c3ccc(F)cc3)ncn2CCCN2CCOCC2)n1
5. Cc1ccc(Nc2ccnc(Nc3cccc(C(N)=O)c3)n2)cc1O
6. CCS(=O)(=O)c1ccc(OC)c(Nc2nccc(N(C)c3ccc4c(C)n[nH]c4c3)n2)c1
7. C[C@@H](Oc1cc(-n2cnc3ccc(OCC4CCN(C)CC4)cc32)sc1C(N)=O)c1ccccc1C(F)(F)F

OUTPUT:
1. 3.23
2. 1.64
3. 3.49
4. 0.96
5. 2.74
6. 2.62
7. -2.73

For each entry beneath this line, provide reported inhibition.
1. CN1CCN(C(=O)c2ccc(NC(=O)Nc3ccc(N(C)c4ccnc(Nc5ccc(CS(C)(=O)=O)cc5)n4)cc3)cc2)CC1
2. O=C(Nc1ccc(Oc2ccc3[nH]c(NC(=O)c4ccco4)nc3c2)cc1)Nc1cc(C(F)(F)F)ccc1F
3. CC(C)c1ccc2c(c1)NC(=O)/C2=N/Nc1ccc(S(N)(=O)=O)cc1

OUTPUT:
1: 2.62; 2: 0.65; 3: -1

###

- System: Tyrosine-protein kinase ABL1 (Homo sapiens), P00519 [T315I]
- recordedConditions: at 0.1 µM
metricName: inhibition (%)
Numbers only, in %.

The cases that follow already have their inhibition on record.
NC(=O)c1sc(-n2cnc3ccccc32)cc1OCc1ccccc1Br; 3.2
C[C@@H](Oc1cc(-n2cnc3ccc(OC[C@@H](O)CO)cc32)sc1C(N)=O)c1ccccc1Cl; -0.17
NS(=O)(=O)c1ccc(NC=C2C(=O)Nc3ccc4ncsc4c32)cc1; 15
Cc1ccc(NC(=O)CC2CC2)cc1-c1ccc(C(=O)NCC2CC2)cc1; 2.14
Cc1ccc(C(=O)NC2CC2)cc1-c1ccc2[nH]ncc2c1; -2.71

For each entry beneath this line, provide reported inhibition.
1. CN(c1ccc(NC(=O)Nc2ccc(OC(F)(F)F)cc2)cc1)c1ccnc(Nc2cccc(S(N)(=O)=O)c2)n1
2. NS(=O)(=O)c1cccc(-c2cc3ccncc3cc2OCc2ccccc2)c1
3. Cc1cc(Cl)cc2c1NC(=O)C2=NNc1ccc(S(N)(=O)=O)cc1

OUTPUT:
1: 48.7; 2: 3.3; 3: 1.38

For each entry beneath this line, provide reported inhibition.
1. NS(=O)(=O)c1ccc(Nc2cc(-c3cccc(O)c3)n[nH]2)cc1
2. COc1cc2ncnc(Nc3ccc4c(cnn4Cc4ccccc4)c3)c2cc1OC

OUTPUT:
1. 4.08
2. 2.91

###

Answer each item with its documented inhibition.
- targetOfAssay: Receptor-type tyrosine-protein kinase FLT3 (Homo sapiens) (UniProt P36888);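 note: mean inhibition value from the GSK PKIS kinase screening set, with the assay run by Nanosyn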
- Sequence (P36888 whole entry): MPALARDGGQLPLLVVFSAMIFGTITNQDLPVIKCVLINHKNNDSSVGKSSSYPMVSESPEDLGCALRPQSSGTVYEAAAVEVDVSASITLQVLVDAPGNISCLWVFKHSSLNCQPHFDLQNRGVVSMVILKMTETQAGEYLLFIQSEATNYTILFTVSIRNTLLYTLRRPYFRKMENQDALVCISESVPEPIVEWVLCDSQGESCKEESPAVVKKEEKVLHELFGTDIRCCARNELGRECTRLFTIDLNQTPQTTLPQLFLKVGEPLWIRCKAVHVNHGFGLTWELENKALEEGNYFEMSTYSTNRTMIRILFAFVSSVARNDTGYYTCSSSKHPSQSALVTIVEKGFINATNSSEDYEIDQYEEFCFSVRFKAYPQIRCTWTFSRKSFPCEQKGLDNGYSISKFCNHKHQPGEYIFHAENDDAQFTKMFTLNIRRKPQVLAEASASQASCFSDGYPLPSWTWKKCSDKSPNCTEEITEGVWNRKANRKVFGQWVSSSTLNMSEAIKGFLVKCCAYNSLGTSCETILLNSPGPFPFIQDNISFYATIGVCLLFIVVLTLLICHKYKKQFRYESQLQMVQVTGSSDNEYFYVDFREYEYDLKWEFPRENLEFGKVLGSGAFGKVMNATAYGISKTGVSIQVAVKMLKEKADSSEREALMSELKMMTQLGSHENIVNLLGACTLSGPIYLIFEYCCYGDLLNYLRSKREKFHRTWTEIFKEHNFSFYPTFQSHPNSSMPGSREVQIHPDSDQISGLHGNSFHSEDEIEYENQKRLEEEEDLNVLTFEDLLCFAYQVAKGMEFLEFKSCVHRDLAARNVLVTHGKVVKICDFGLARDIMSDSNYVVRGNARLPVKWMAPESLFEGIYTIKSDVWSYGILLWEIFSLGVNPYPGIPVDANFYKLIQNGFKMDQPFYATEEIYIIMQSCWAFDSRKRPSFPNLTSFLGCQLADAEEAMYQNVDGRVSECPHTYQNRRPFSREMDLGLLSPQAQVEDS
- recordedConditions: at 0.1 µM

The cases that follow already have their inhibition on record.
Cc1ccc(NC(=O)CC2CC2)cc1-c1ccc(C(=O)NCC2CC2)cc1; 1.93%
COc1cc(Nc2nccc(-c3cnn4ncccc34)n2)cc(OC)c1; 59.6%
CCn1c(-c2nonc2N)nc2ccc(F)cc21; 2.66%
Cc1ccc(O)cc1Nc1ccnc2ccc(S(C)(=O)=O)cc12; 2.73%
CS(=O)(=O)Nc1cccc(-c2ccc3c(NC(=O)C4CC4)n[nH]c3c2)c1; 0.45%
COc1cc2ncnc(Nc3ccc(C)c(O)c3)c2cc1OC; 0.71%
Cc1cc(-c2ccccn2)cc(C)c1/C=C/c1cncc(-c2nn[nH]n2)c1; 5.83%
Oc1cccc(-c2nc(-c3ccccc3)[nH]c2-c2ccncc2)c1; 5.28%

For each entry beneath this line, provide reported inhibition.
1. CN(C)C(=O)O[C@@H]1CN[C@@H](C#Cc2cc3ncnc(Nc4ccc(OCc5cccc(F)c5)c(Cl)c4)c3s2)C1
2. [O-][S+]1CCN(Cc2ccc(-c3ccc4ncnc(Nc5ccc(OCc6ccccc6)c(Cl)c5)c4c3)o2)CC1

OUTPUT:
-1.89%
5.36%

###

Answer each item with its documented inhibition.
- targetOfAssay: Fibroblast growth factor receptor 2 (Homo sapiens) (UniProt P21802);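 note: values are mean percent inhibition of FGFR2 kinase, measured within the GSK Published Kinase Inhibitor Set (PKIS) screening panel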
- Sequence (P21802 22-821 limits assumed): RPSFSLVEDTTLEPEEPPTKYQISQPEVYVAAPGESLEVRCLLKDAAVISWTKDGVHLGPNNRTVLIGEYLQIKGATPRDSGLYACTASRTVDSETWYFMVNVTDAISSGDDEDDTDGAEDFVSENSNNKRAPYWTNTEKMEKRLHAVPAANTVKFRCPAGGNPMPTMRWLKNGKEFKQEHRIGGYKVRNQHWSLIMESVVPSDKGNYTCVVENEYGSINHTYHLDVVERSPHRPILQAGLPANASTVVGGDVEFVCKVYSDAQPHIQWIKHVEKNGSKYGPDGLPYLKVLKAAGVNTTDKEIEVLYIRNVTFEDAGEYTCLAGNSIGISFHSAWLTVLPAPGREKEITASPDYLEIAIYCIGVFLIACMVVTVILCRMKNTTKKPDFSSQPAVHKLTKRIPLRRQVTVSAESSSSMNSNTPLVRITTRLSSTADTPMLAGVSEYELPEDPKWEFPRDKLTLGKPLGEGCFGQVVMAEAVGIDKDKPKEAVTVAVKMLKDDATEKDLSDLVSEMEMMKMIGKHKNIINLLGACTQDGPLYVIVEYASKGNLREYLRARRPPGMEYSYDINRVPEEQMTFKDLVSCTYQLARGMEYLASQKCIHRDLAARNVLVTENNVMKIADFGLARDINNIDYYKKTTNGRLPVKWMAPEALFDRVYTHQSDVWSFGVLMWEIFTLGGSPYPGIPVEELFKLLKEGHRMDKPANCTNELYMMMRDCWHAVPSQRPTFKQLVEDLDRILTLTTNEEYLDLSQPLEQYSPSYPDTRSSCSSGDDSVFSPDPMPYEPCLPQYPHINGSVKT
- recordedConditions: at 0.1 µM
Answers are plain numbers, in %.

The cases that follow already have their inhibition on record.
Cc1cc(Cl)cc2c1NC(=O)C2=NNc1ccc(S(N)(=O)=O)cc1; 1.45
NS(=O)(=O)c1cccc(Nc2cc(-c3ccc(F)cc3)n[nH]2)c1; 0.78
c1ccc(Nc2ncc(-c3ccccc3)o2)cc1; 6.37
COc1cccc(-n2ncc3c(N/N=C/c4ccc(S(C)(=O)=O)cc4)ncnc32)c1; -2.62
CC(C)c1ccc(Nc2nccc(-c3cnn4ncccc34)n2)cc1; 0.37
Cc1ccc(Nc2ccnc(Nc3cccc(C(N)=O)c3)n2)cc1O; 1.51

For each entry beneath this line, provide reported inhibition.
1. Nc1nccc(-c2c(-c3ccc(F)cc3)nn3cc(C(F)(F)F)ccc23)n1
2. ON=C1CCc2cc(-c3nc(C4CCNCC4)[nH]c3-c3ccncc3)ccc21
3. COc1ccc(-c2nn3ncccc3c2-c2ccnc(Nc3cccc(C(F)(F)F)c3)n2)cc1

OUTPUT:
0.61
-1.99
2.73

For each entry beneath this line, provide reported inhibition.
1. CS(=O)(=O)Nc1cccc(-c2ccc3c(NC(=O)C4CC4)n[nH]c3c2)c1
2. CC(C)c1ccc2c(c1)NC(=O)/C2=N/Nc1ccc(S(N)(=O)=O)cc1
3. NC(=O)c1sc(-n2cnc3ccccc32)cc1OCc1ccccc1Br

OUTPUT:
1. -3.44
2. 0.48
3. 5.8

For each entry beneath this line, provide reported inhibition.
1. NS(=O)(=O)c1ccc(NC=C2C(=O)Nc3ccc4ncsc4c32)cc1
2. [O-][S+]1CCN(Cc2ccc(-c3ccc4ncnc(Nc5ccc(OCc6ccccc6)c(Cl)c5)c4c3)o2)CC1
3. CN(C)C(=O)O[C@@H]1CN[C@@H](C#Cc2cc3ncnc(Nc4ccc(OCc5cccc(F)c5)c(Cl)c4)c3s2)C1
4. COc1cccc(-n2nc(C)c3c(N/N=C(\C)c4ccncc4)ncnc32)c1

OUTPUT:
1. 31.5
2. 0.85
3. 0.19
4. 3.14

For each entry beneath this line, provide reported inhibition.
1. NC(=O)c1cccc(Nc2nccc(Nc3cccc(F)c3)n2)c1
2. Cc1ccc(C(=O)NC2CC2)cc1-c1ccc2[nH]ncc2c1
3. Oc1cccc(-c2nc(-c3ccccc3)[nH]c2-c2ccncc2)c1
4. NS(=O)(=O)c1cccc(-c2cc3ccncc3cc2OCc2ccccc2)c1
5. N#Cc1cccc(Nc2nccc(-c3cnn4ncccc34)n2)c1

OUTPUT:
2.81
-3.95
4
9.37
7.31

For each entry beneath this line, provide reported inhibition.
1. FC(F)(F)c1ccc(-c2nn3ncccc3c2-c2ccnc(Nc3ccc4c(c3)OCCO4)n2)cc1
2. Cc1ccc2c(-c3ccnc(Nc4ccc5c(c4)OCCO5)n3)c(-c3ccc(C(F)(F)F)cc3)nn2n1
3. NS(=O)(=O)c1ccc(-c2cc3ccncc3cc2OCc2ccccc2)cc1
4. CN1CCN(C(=O)c2ccc(NC(=O)Nc3ccc(N(C)c4ccnc(Nc5ccc(CS(C)(=O)=O)cc5)n4)cc3)cc2)CC1
5. Cc1ccc2c(c1)/C(=N/Nc1ccc(S(N)(=O)=O)cc1)C(=O)N2
6. Cc1ccc2c(-c3ccnc(Nc4cccc(C(F)(F)F)c4)n3)c(-c3ccccc3)nn2n1
7. Cc1cc(-c2ccccn2)cc(C)c1/C=C/c1cncc(-c2nn[nH]n2)c1
8. Cc1nc(-c2ccccc2)n2nc(NCCCN3CCOCC3)ncc12

OUTPUT:
1. 6.74
2. -1.07
3. 2.27
4. 6.7
5. 2.39
6. 6.45
7. 4.22
8. 3.94

For each entry beneath this line, provide reported inhibition.
1. OCc1ccc(-c2nc(-c3ccccn3)c(-c3ccc4c(c3)OCO4)[nH]2)cc1
2. CN(C)c1cc2c(Nc3ccc4c(cnn4Cc4ccccc4)c3)ncnc2cn1
3. COc1cc2ncn(-c3cc(OCc4ccccc4S(C)(=O)=O)c(C#N)s3)c2cc1OC
4. COc1ccc2ncnc(Nc3ccc(OCc4ccccc4)cc3)c2c1
5. C[C@@H](Oc1cc(-n2cnc3ccc(OC[C@@H](O)CO)cc32)sc1C(N)=O)c1ccccc1Cl
6. CCn1c(-c2nonc2N)nc2c(C#CC(C)(C)O)nc(OCCNC)cc21
7. CS(=O)(=O)CCNCc1nc(-c2ccc3ncnc(Nc4ccc(OCc5cccc(C(F)(F)F)c5)cc4)c3c2)cs1
8. Cc1ccc(NC(=O)CC2CC2)cc1-c1ccc(C(=O)NCC2CC2)cc1

OUTPUT:
5.49
2.03
8.86
1.22
-1.37
5.4
6.08
1.09

For each entry beneath this line, provide reported inhibition.
1. CCS(=O)(=O)c1ccc(OC)c(Nc2ncc(-c3cccc(OC)c3)o2)c1
2. COC(=O)c1ccc2c(c1)C(=Cc1cc(Br)c(O)c(Br)c1)C(=O)N2

OUTPUT:
[30.9, 7.19]
